molecular target: Gonadotropin-releasing hormone receptor (Homo sapiens); assay: Binding inhibition towards human pituitary gonadotropin-releasing hormone receptor using [125I]buserelin.
Entries and their IC50 values follow.
Write the answer as a number in nM, unit excluded.

Example cases with answers are listed next.
COCn1cc(CCNC[C@@H](C)c2c(-c3cc(C)cc(C)c3)[nH]c3ccc(C(C)(C)C(=O)N4CC5CCC4CC5)cc23)ccc1=O	0.4
Cc1cc(C)cc(-c2[nH]c3ccc(C(C)(C)C(=O)N4CC5CCC4CC5)cc3c2[C@H](C)CNCCC2CCC(=O)N(C)C2)c1 (some centres undefined)	0.4
Cc1cc(C)cc(-c2[nH]c3ccc(C(C)(C)C(=O)N4CC5CCC4CC5)cc3c2[C@H](C)CNCCc2cccnc2)c1	0.6
Cc1cc(C)cc(-c2[nH]c3ccc(C(C)(C)C(=O)N4CCC5(CCCC5)CC4)cc3c2[C@H](C)CNCCCCc2ccncc2)c1	2.7
Cc1cc(C)cc(-c2[nH]c3ccc(C(C)(C)C(=O)N4CC5CCC(CC5)C4)cc3c2[C@H](C)CNCCCCc2ccncc2)c1	2.1

IC50 for Cc1cc(C)cc(-c2[nH]c3ccc(C(C)(C)C(=O)N4CC5(C)CC4CC(C)(C)C5)cc3c2[C@H](C)CNCCCCc2ccncc2)c1 (some centres undefined) is 4.8

# IC50 (molecule: `Cc1cc(C)cc(-c2[nH]c3ccc(C(C)(C)C(=O)N4CC5CCC4CC5)cc3c2[C@H](C)CNCCc2ccc(=O)n(C)c2)c1` ) is 0.2

Please fill in: IC50 reported for `Cc1cc(C)cc(-c2[nH]c3ccc(C(C)(C)C(=O)N4CCN(C(=O)OC(C)(C)C)CC4)cc3c2[C@H](C)CNCCCCc2ccncc2)c1` = 6.1

====

target: Gonadotropin-releasing hormone receptor (Homo sapiens, UniProt P30968); test: In vitro functional antagonism via inhibition of GnRH-stimulated phosphatidylinositol (PI) hydrolysis in cloned Chinese hamster ovary (CHO) cells stably expressing the human GnRH receptor.; type: cell-based
QUANTITY_MEASURED: log10 of IC50 (log10 of the value in nM)
All values: log10 IC50 [nM].

Illustrative cases are given below, each with its answer.
Cc1cc(C)cc(-c2[nH]c3ccc(C(C)(C)C(=O)N4CCN(C(=O)OC(C)(C)C)CC4)cc3c2[C@H](C)CNCCCCc2ccncc2)c1	2.34
Cc1cc(C)cc(-c2[nH]c3ccc(C(C)(C)C(=O)N4CC5CCCC4C5)cc3c2[C@H](C)CNCCCCc2ccncc2)c1 (some centres not stated)	0.83
Cc1cc(C)cc(-c2[nH]c3ccc(C(C)(C)C(=O)N4CCC5(CC4)OCCO5)cc3c2[C@H](C)CNCCCCc2ccncc2)c1	1.82
Cc1cc(C)cc(-c2[nH]c3ccc(C(C)(C)C(=O)N4C5CCCC4CC5)cc3c2[C@H](C)CNCCCCc2ccncc2)c1	0.94
Cc1cc(C)cc(-c2[nH]c3ccc(C(C)(C)C(=O)N4CC5CCC(CC5)C4)cc3c2[C@H](C)CNCCCCc2ccncc2)c1	1.11
CCS(=O)(=O)N1CCN(C(=O)C(C)(C)c2ccc3[nH]c(-c4cc(C)cc(C)c4)c([C@H](C)CNCCCCc4ccncc4)c3c2)CC1	2.09

Field: next compound
# compound `Cc1cc(C)cc(-c2[nH]c3ccc(C(C)(C)C(=O)N4CC5CCC4CC5)cc3c2[C@H](C)CNCCc2ccc(=O)n(C)c2)c1` ; its log10 of IC50 = 0.15

====

# Lookup of reported IC50 keyed by entry
molecular target: Gonadotropin-releasing hormone receptor (Homo sapiens); assay: In vitro functional antagonism via inhibition of GnRH-stimulated phosphatidylinositol (PI) hydrolysis in cloned Chinese hamster ovary (CHO) cells stably expressing the human GnRH receptor.; format: cell-based
Note: unit nM is implicit; provide only the numeric part.

Cc1cc(C)cc(-c2[nH]c3ccc(C(C)(C)C(=O)N4C5CCC4CC5)cc3c2[C@H](C)CNCCCCc2ccncc2)c1	5.7

With Gonadotropin-releasing hormone receptor (Homo sapiens) as the test system, `Cc1cc(C)cc(-c2[nH]c3ccc(C(C)(C)C(=O)N4C[C@H]5CC[C@@H]4C5)cc3c2[C@H](C)CNCCCCc2ccncc2)c1` showed IC50 of 4

Summary: Cc1cc(C)cc(-c2[nH]c3ccc(C(C)(C)C(=O)N4CC5CCC4CC5)cc3c2[C@H](C)CNCCC2CCC(=O)N(C)C2)c1 (some centres undefined) , Gonadotropin-releasing hormone receptor (Homo sapiens), IC50 = 8.2

Item `Cc1cc(C)cc(-c2[nH]c3ccc(C(C)(C)C(=O)N4CCC(C)(C)CC4)cc3c2[C@H](C)CNCCCCc2ccncc2)c1` was tested on Gonadotropin-releasing hormone receptor (Homo sapiens); the reported IC50 is 39

Entry `Cc1cc(C)cc(-c2[nH]c3ccc(C(C)(C)C(=O)N4CC5CCC4CC5)cc3c2[C@H](C)CNCCCCc2ccncc2)c1` , tested on Gonadotropin-releasing hormone receptor (Homo sapiens), has a reported IC50 of 2.8

Summary: `Cc1cc(C)cc(-c2[nH]c3ccc(C(C)(C)C(=O)N4CC5CCC4CC5)cc3c2[C@H](C)CNCCc2ccncc2)c1` , Gonadotropin-releasing hormone receptor (Homo sapiens), IC50 = 7.2

Field IC50 (system: Gonadotropin-releasing hormone receptor (Homo sapiens)) for entry `Cc1cc(C)cc(-c2[nH]c3ccc(C(C)(C)C(=O)N4CC5CCC4CC5)cc3c2[C@H](C)CNCCc2ccc(O)nc2)c1` = 1

Let me check: `Cc1cc(C)cc(-c2[nH]c3ccc(C(C)(C)C(=O)N4C[C@@H]5CC[C@H]4C5)cc3c2[C@H](C)CNCCCCc2ccncc2)c1` , system Gonadotropin-releasing hormone receptor (Homo sapiens), measured IC50 is 8.7

Cc1cc(C)cc(-c2[nH]c3ccc(C(C)(C)C(=O)N4CC5(C)CC4CC(C)(C)C5)cc3c2[C@H](C)CNCCCCc2ccncc2)c1 (some centres undefined) on Gonadotropin-releasing hormone receptor (Homo sapiens) gives IC50 = 6.4

// returns IC50 for `Cc1cc(C)cc(-c2[nH]c3ccc(C(C)(C)C(=O)N4CCC5(CCCC5)CC4)cc3c2[C@H](C)CNCCCCc2ccncc2)c1` with Gonadotropin-releasing hormone receptor (Homo sapiens); value = 93

Observed IC50, Gonadotropin-releasing hormone receptor (Homo sapiens), `Cc1cc(C)cc(-c2[nH]c3ccc(C(C)(C)C(=O)N4CC5CCC4CC5)cc3c2[C@H](C)CNCCc2cccn(C)c2=O)c1` : 82

Per the reported Gonadotropin-releasing hormone receptor (Homo sapiens) data, `Cc1cc(C)cc(-c2[nH]c3ccc(C(C)(C)C(=O)N(CC(C)C)CC(C)C)cc3c2[C@H](C)CNCCCCc2ccncc2)c1` has IC50 of 14

Test item `Cc1cc(C)cc(-c2[nH]c3ccc(C(C)(C)C(=O)N4CC5CCC4CC5)cc3c2[C@H](C)CNCCc2cc(C)c(=O)n(C)c2)c1` ; Gonadotropin-releasing hormone receptor (Homo sapiens); reported IC50 was 4

So the reported IC50 for `Cc1cc(C)cc(-c2[nH]c3ccc(C(C)(C)C(=O)N4C[C@H]5CC[C@@H]4C5)cc3c2[C@H](C)CNCCc2ccncc2)c1` , on Gonadotropin-releasing hormone receptor (Homo sapiens), turned out to be 1.9

====

compounds and their reported pIC50
Molecular target: Gonadotropin-releasing hormone receptor (Homo sapiens)
Sequence (P30968 whole entry): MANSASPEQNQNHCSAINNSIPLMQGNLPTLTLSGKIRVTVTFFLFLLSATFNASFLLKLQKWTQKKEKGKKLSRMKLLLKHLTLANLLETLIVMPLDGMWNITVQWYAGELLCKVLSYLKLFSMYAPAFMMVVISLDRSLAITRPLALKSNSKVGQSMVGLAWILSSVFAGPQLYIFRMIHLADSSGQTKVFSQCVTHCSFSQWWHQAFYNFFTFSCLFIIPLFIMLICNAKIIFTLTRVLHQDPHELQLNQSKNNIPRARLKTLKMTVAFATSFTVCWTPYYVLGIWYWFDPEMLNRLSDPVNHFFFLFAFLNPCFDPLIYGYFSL
Assay: Binding inhibition towards human pituitary gonadotropin-releasing hormone receptor using [125I]buserelin.
Notebook: values listed as pIC50 are -log10 of the concentration (mol/L).

For reference, reported pIC50 for `Cc1cc(C)cc(-c2[nH]c3ccc(C(C)(C)C(=O)N4CCC(C)(C)CC4)cc3c2[C@H](C)CNCCCCc2ccncc2)c1` stands at 8.89

Measured pIC50, `Cc1cc(C)cc(-c2[nH]c3ccc(C(C)(C)C(=O)N4C[C@H]5CC[C@@H]4C5)cc3c2[C@H](C)CNCCCCc2ccncc2)c1` : 9.00

Consider `Cc1cc(C)cc(-c2[nH]c3ccc(C(C)(C)C(=O)N4C5CCC4CC5)cc3c2CCNCCCCc2ccncc2)c1` . Its measured pIC50 is 8.85

The reported value for `Cc1cc(C)cc(-c2[nH]c3ccc(C(C)(C)C(=O)N4C[C@@H]5CC[C@H]4C5)cc3c2[C@H](C)CNCCCCc2ccncc2)c1` in terms of pIC50 is 9.40

# compound `CCS(=O)(=O)N1CCN(C(=O)C(C)(C)c2ccc3[nH]c(-c4cc(C)cc(C)c4)c([C@H](C)CNCCCCc4ccncc4)c3c2)CC1` ; its pIC50 = 8.36

Briefly, pIC50 measured for `Cc1cc(C)cc(-c2[nH]c3ccc(C(C)(C)C(=O)N4CC5CCC4CC5)cc3c2[C@H](C)CNCCCCc2ccncc2)c1` : 9.00

Measured pIC50, Cc1cc(C)cc(-c2[nH]c3ccc(C(C)(C)C(=O)N4C5CCCCC5C5CCCCC54)cc3c2[C@H](C)CNCCCCc2ccncc2)c1 (stereo not given in full) : 7.68

Summary for this compound, `Cc1cc(C)cc(-c2[nH]c3ccc(C(C)(C)C(=O)N4CC5CCC4CC5)cc3c2[C@H](C)CNCCc2cccn(C)c2=O)c1` : pIC50 is 8.28

The recorded pIC50 for entry `Cc1cc(C)cc(-c2[nH]c3ccc(C(C)(C)C(=O)N4C5CCCC4CC5)cc3c2[C@H](C)CNCCCCc2ccncc2)c1` equals 9.10

GET /value?item= `Cc1cc(C)cc(-c2[nH]c3ccc(C(C)(C)C(=O)N4CCC5(CC4)OCCO5)cc3c2[C@H](C)CNCCCCc2ccncc2)c1` &field=pIC50 returns 9.22

The compound listed as `Cc1cc(C)cc(-c2[nH]c3ccc(C(C)(C)C(=O)N4CC5CCC4CC5)cc3c2[C@H](C)CNCCc2ccc(O)nc2)c1` has a reported pIC50 of 9.52
